- Experimental System: human CRTH2 (Homo sapiens)
- Assay: Human CRTH2 Receptor Binding Assay (whole cell, [3H]ramatroban)
- Design: expressed in transfected cells; host or cells: CHO-K1
- Condition Summary: CHO-K1 cells expressing human CRTH2 and G-alpha16; 20 nM [3H]ramatroban; 1 hour, room temperature
pIC50: −log10 of the molar value.
Assign Y to entries whose pIC50 meets or exceeds 8; assign N to the rest.

As a guide, the following entries are already answered.
- Molecule: "Cc1c(CC(=O)O)cc2ccc(F)cc2c1Cc1ccc(S(=O)(=O)C(F)(F)F)cc1"
  Classification: "Y"
- Molecule: "CNS(=O)(=O)c1ccc(C(=O)c2cc(CC(=O)O)cc3ccc(F)cc23)cc1"
  Classification: "Y"
- Molecule: "COC(c1ccc(S(C)(=O)=O)cc1)c1cc(CC(=O)O)cc2ccc(F)cc12 (centres unmarked)"
  Classification: "N"

[in] Does pIC50 meet or surpass 8 for Cc1c(CC(=O)O)cc2ccc(F)cc2c1Cc1ccc(SCc2ccccc2)cc1 ?
[out] Y

[in] Query Cc1ccc2cc(CC(=O)O)cc(C(O)c3ccc(S(C)(=O)=O)cc3)c2c1 (centres unmarked) next
[out] N

[in] Query CS(=O)(=O)c1ccc(C(=O)c2cc(CC(=O)O)cc3ccc(F)cc23)cc1C(F)(F)F next
[out] Y

[in] Query CCS(=O)(=O)c1ccc(C(O)c2cc(CC(=O)O)cc3ccc(F)cc23)c(C)c1 (centres unmarked) next
[out] N

[in] Query Cc1cc(S(C)(=O)=O)ccc1C(O)c1cc(CC(=O)O)cc2ccc(F)cc12 (centres unmarked) next
[out] N

[in] Query Cc1c(CC(=O)O)cc2ccc(F)cc2c1Cc1ccc(S(=O)(=O)c2ccccc2)cc1 next
[out] Y

[in] Query CS(=O)(=O)c1ccc(Cc2cc(CC(=O)O)cc3cc(C(F)(F)F)ccc23)cc1 next
[out] N

[in] Query O=C(O)Cc1cc(C(=O)c2ccc(S(=O)(=O)N3CCOCC3)cc2)c2cc(F)ccc2c1 next
[out] Y

[in] Query CS(=O)(=O)c1cccc(C(=O)c2cc(CC(=O)O)cc3ccc(Cl)cc23)c1 next
[out] N

---

- Experimental System: human CRTH2 (Homo sapiens, UniProt Q9Y5Y4)
- Sequence (Q9Y5Y4 whole entry): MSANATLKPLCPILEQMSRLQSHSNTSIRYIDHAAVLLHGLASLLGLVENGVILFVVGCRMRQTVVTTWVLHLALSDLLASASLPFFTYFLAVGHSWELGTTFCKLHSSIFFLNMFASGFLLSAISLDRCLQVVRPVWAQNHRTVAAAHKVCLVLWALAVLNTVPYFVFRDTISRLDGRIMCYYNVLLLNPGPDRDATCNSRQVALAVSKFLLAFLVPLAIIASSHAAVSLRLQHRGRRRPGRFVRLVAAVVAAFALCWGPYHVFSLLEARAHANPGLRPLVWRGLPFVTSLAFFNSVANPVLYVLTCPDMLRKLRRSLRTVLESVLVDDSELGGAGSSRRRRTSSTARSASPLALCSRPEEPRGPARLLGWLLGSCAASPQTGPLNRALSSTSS
- Assay: Human CRTH2 Receptor Binding Assay (whole cell, [3H]ramatroban)
- Design: expressed in transfected cells; host or cells: CHO-K1
- Condition Summary: CHO-K1 cells expressing human CRTH2 and G-alpha16; 20 nM [3H]ramatroban; 1 hour, room temperature
Label key: 1.0 means IC50 under 50 nM; 0.0 means IC50 of 50 nM or more.

[in] Strictly below 50 nM in IC50? CC(C(=O)O)c1cc(C(=O)c2ccc(S(C)(=O)=O)cc2)c2cc(F)ccc2c1 (centres unmarked) [Example 7-1]
[out] 0.0

[in] Query O=C(O)Cc1cc(C(=O)c2ccc(S(=O)(=O)c3cccc(Cl)c3)cc2)c2cc(F)ccc2c1 [Example 1-5] next
[out] 1.0

[in] Query CS(=O)(=O)c1cccc(C(=O)c2cc(CC(=O)O)cc3cc4c(cc23)OCO4)c1 [Example 2-12] next
[out] 0.0

[in] Query CS(=O)(=O)c1ccc(C(=O)c2cc(CC(=O)O)cc3ccc(F)cc23)c(F)c1 [Example 2-17] next
[out] 1.0

[in] Query Cc1c(CC(=O)O)cc2ccc(F)cc2c1Cc1cccc(S(=O)(=O)C(F)(F)F)c1 [Example 11-2] next
[out] 0.0

Reference for the values: patent US8124629B2
